Target: rat α1a adrenergic receptor (Rattus norvegicus, UniProt P43140)
Sequence (P43140 1-466): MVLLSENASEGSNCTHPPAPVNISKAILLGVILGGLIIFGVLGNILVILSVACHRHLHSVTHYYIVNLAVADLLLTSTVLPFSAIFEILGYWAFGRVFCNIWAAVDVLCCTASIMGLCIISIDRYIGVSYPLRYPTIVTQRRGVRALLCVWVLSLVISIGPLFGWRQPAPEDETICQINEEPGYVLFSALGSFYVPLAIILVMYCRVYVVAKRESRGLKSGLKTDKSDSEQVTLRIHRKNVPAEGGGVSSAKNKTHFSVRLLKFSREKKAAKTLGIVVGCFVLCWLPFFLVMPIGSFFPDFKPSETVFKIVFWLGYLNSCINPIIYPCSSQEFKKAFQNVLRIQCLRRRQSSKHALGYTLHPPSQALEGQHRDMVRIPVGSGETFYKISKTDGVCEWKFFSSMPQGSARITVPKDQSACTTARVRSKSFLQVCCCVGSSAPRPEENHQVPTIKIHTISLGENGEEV
measured_quantity: pIC50
For clarity, pIC50 is expressed as the negative log10 of concentration in mol/L.

{"compound": "COc1cc2nc(N3CCN(C(=O)C4COc5ccccc5O4)CC3)nc(N)c2cc1OC (centres unmarked)", "target_of_assay": "rat α1a adrenergic receptor (Rattus norvegicus, UniProt P43140)", "obs_value": 9.13}

Here is the next item to consider.
Query: Consider the compound `COc1cc2nc(N3CCN(C(=O)CCCCCCCCCCC(=O)N4CCN(c5nc(N)c6cc(OC)c(OC)cc6n5)CC4)CC3)nc(N)c2cc1OC` and give its measured pIC50.
Reply: 8.60
